All values here come from ChEMBL document CHEMBL2434912.

Biological target: Cystine/glutamate transporter (Homo sapiens) (UniProt Q9UPY5)
Sequence (Q9UPY5 whole entry): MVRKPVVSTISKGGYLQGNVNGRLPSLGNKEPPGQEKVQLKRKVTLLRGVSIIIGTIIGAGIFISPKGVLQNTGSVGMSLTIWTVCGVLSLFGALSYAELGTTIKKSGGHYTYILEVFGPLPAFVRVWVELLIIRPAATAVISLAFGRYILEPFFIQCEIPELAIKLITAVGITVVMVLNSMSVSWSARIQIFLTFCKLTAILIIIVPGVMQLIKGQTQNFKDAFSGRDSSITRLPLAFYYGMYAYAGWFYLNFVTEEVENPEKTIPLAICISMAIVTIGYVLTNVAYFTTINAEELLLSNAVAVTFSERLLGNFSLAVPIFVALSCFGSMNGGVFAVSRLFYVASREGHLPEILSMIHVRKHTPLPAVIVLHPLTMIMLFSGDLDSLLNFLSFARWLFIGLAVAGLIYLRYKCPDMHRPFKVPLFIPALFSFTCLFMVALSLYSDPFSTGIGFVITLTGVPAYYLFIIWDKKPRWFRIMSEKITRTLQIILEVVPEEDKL
Assay: Inhibition of system xc-transporter-mediated [3H]-L-glutamate uptake in human SNB19 cells at 500 uM after 5 mins by liquid scintillation counting analysis relative to control
Format: cell-based
Conditions: SNB-19
recorded.metric: inhibition (%)

>>> result_value("C/C(=N\\NC(=O)c1cccc2ccccc12)c1c(C(=O)O)noc1C")
68
>>> result_value("C/C(=N\\NC(=O)c1ccccc1)c1c(C(=O)O)noc1C")
83
>>> result_value("C/C(=N\\NC(=O)c1ccc(F)cc1F)c1c(C(=O)O)noc1C")
58
>>> result_value("C/C(=N\\NC(=O)c1ccccc1O)c1c(C(=O)O)noc1C")
52
>>> result_value("C/C(=N\\NC(=O)c1cc(C(F)(F)F)cc(C(F)(F)F)c1)c1c(C(=O)O)noc1C")
90
>>> result_value("COc1ccc(C(=O)N/N=C(\\C)c2c(C(=O)O)noc2C)cc1")
68
